Values were extracted from patent US10358436B2.

# systemTested: Aurora A (Homo sapiens (Human), UniProt O14965)
# Sequence (O14965 whole entry): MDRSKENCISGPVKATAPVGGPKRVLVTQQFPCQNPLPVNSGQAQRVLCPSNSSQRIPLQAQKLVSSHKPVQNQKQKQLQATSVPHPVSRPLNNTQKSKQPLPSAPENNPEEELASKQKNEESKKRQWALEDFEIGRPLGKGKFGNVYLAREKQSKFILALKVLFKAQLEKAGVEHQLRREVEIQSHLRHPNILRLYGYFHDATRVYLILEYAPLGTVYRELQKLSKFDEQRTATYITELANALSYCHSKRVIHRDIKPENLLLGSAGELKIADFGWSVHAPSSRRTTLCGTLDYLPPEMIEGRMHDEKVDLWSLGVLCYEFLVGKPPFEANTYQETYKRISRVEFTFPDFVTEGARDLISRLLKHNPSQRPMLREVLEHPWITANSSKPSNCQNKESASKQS
# testSummary: Aurora A inhibition assay (Z-Lyte)
# Type: biochemical
Structures can show the parent of a compound that is named as a salt.
Reported values of inhibition at 1 µM for individual entries
endpoint: inhibition at 1 µM

* COc1ccc2c(c1)[C@]1(C[C@H]1c1ccc3c(-c4ccc(N5CCN(C6CCCCC6)CC5)cc4)n[nH]c3c1)C(=O)N2 [Example A193, 2,2,2-trifluoroacetate] | < 50%
* COc1ccc2c(c1)[C@]1(C[C@H]1c1ccc3c(-c4ccc(N5CCC(N(C)C)CC5)cc4)n[nH]c3c1)C(=O)N2 (relative stereo) [Example A119, 2,2,2-trifluoroacetate] | < 50%
* CN(C)Cc1ccc(/C=C/c2n[nH]c3cc([C@@H]4C[C@@]45C(=O)N(C)c4ccccc45)ccc23)cc1 [Example A109, 2,2,2-trifluoroacetate] | > 50%
* COc1ccc2c(c1)[C@]1(C[C@H]1c1ccc3c(/C=C/c4ccncc4)n[nH]c3c1)C(=O)N2 [Example A111, 2,2,2-trifluoroacetate] | > 50%
* CCc1ccc2c(c1)[C@]1(C[C@H]1c1ccc3c(/C=C/c4ccc(CN(C)C)cc4)n[nH]c3c1)C(=O)N2 (relative stereo) [Example A167, 2,2,2-trifluoroacetate] | > 50%
* COc1ccc2c(c1)[C@]1(C[C@H]1c1ccc3c(-c4ccc(N5CCN(C6CCCC6)CC5)cc4)n[nH]c3c1)C(=O)N2 [Example A192, 2,2,2-trifluoroacetate] | < 50%
* CN1C(=O)[C@@]2(C[C@H]2c2ccc3c(/C=C/c4ccc(N5CCNCC5)cc4)n[nH]c3c2)c2ccccc21 (relative stereo) [Example A89, 2,2,2-trifluoroacetate] | > 50%
* COc1ccc2c(c1)[C@]1(C[C@H]1c1ccc3c(-c4cccc(N5CCNCC5)c4)n[nH]c3c1)C(=O)N2 (relative stereo) [Example A47, 2,2,2-trifluoroacetate] | < 50%
* O=C1Nc2ccccc2[C@]12C[C@H]2c1ccc2c(/C=C/c3csc(CN4CCOCC4)c3)n[nH]c2c1 [Example A202, 2,2,2-trifluoroacetate] | > 50%
* COc1ccc2c(c1)[C@]1(C[C@H]1c1ccc3c(/C=C/c4ccc(CC5CCN(C)CC5)cc4)n[nH]c3c1)C(=O)N2 [Example A82, 2,2,2-trifluoroacetate salt] | > 50%
* CC(C)(c1ccc(/C=C/c2n[nH]c3cc([C@@H]4C[C@@]45C(=O)Nc4ccccc45)ccc23)cc1)N1CCOCC1 [Example A80, 2,2,2-trifluoroacetate salt] | > 50%

----------
# systemTested: Aurora A (Homo sapiens (Human))
# testSummary: Aurora A inhibition assay (Z-Lyte)
# Type: biochemical
Recorded inhibition at 1 µM by entry
endpoint: inhibition at 1 µM

- COc1ccc2c(c1)[C@]1(C[C@H]1c1ccc3c(-c4cccc(CN5CCCCC5)c4)n[nH]c3c1)C(=O)N2 (relative stereo) [Example A44, 2,2,2-trifluoroacetate]: < 50%
- COc1cc2c(cc1OC)[C@]1(C[C@H]1c1ccc3c(/C=C/c4ccc(CN(C)C)cc4)n[nH]c3c1)C(=O)N2 (relative stereo) [Example A168, 2,2,2-trifluoroacetate]: < 50%
- O=C1Nc2ccccc2[C@]12C[C@H]2c1ccc2c(I)n[nH]c2c1 [Example A10]: < 50%
- COc1ccc2c(c1)C1(CC1c1ccc3c(I)n[nH]c3c1)C(=O)N2 (single isomer, unassigned) [Example A6]: < 50%
- O=C1Nc2ccccc2[C@]12C[C@H]2c1ccc2c(/C=C/c3ccc(CN4CCCC4)cc3)n[nH]c2c1 [Example A61]: > 50%
- COc1ccc2c(c1)[C@]1(C[C@H]1c1ccc3c(/C=C/c4cccnc4)n[nH]c3c1)C(=O)N2 [Example A197]: > 50%

----------
# systemTested: Aurora A (Homo sapiens (Human))
# testSummary: Aurora A inhibition assay (Z-Lyte)
# Format: biochemical
Structures can show the parent of a compound that is named as a salt.
Catalogue of compounds with associated inhibition at 1 µM
endpoint: inhibition at 1 µM

• O=C1Nc2ccccc2[C@]12C[C@H]2c1ccc2c(/C=C/c3ccc(CCN4CCOCC4)cc3)n[nH]c2c1 [Example A205, 2,2,2-trifluoroacetate] = > 50%
• Cc1ccc2c(c1)[C@]1(C[C@H]1c1ccc3c(/C=C/c4ccc(CN(C)C)cc4)n[nH]c3c1)C(=O)N2 (relative stereo) [Example A169, 2,2,2-trifluoroacetate] = > 50%
• COc1ccc2c(c1)[C@]1(C[C@H]1c1ccc3c(-c4ccc(C5CCN(C)CC5)cc4)n[nH]c3c1)C(=O)N2 [Example A123, hydrochloride] = < 50%

----------
# systemTested: UniProt:O14965
# testSummary: Aurora A inhibition assay (Z-Lyte)
# Type: biochemical
Structures can show the parent of a compound that is named as a salt.
endpoint: inhibition at 1 µM

- CN1C(=O)[C@@]2(C[C@H]2c2ccc3c(/C=C/c4ccc(CN5CCCCC5)cc4)n[nH]c3c2)c2ccccc21 [Example A94, hydrochloride]: > 50%
- COc1ccc2c(c1)[C@]1(C[C@H]1c1ccc3c(/C=C/c4csc(CN5CCOCC5)c4)n[nH]c3c1)C(=O)N2 (relative stereo) [Example A184, 2,2,2-trifluoroacetate]: > 50%
- COc1ccc2c(c1)[C@]1(C[C@H]1c1ccc3c(-c4ccc(N5CCC(O)CC5)nc4)n[nH]c3c1)C(=O)N2 (relative stereo) [Example A117]: < 50%

----------
# systemTested: Aurora A (Homo sapiens (Human), UniProt O14965)
# testSummary: Aurora A inhibition assay (Z-Lyte)
# Type: biochemical
Counter-ions that a name gives are not always drawn.
Entries and their inhibition at 1 µM
endpoint: inhibition at 1 µM

* CN1CCN(C(=O)c2ccc(-c3n[nH]c4cc([C@@H]5C[C@@]56C(=O)Nc5ccccc56)ccc34)cc2)CC1 (relative stereo) [Example A156, 2,2,2-trifluoroacetate] | < 50%
* COc1ccc2c(c1)[C@]1(C[C@H]1c1ccc3c(-c4ccc(OCCN(C)C)cc4)n[nH]c3c1)C(=O)N2 [Example A69, 2,2,2-trifluoroacetate salt] | < 50%
* COc1ccc2c(c1)[C@]1(C[C@H]1c1ccc3c(-c4ccc(CCN5CCOCC5)cc4)n[nH]c3c1)C(=O)N2 (relative stereo) [Example A159, 2,2,2-trifluoroacetate] | < 50%
* NS(=O)(=O)c1cccc(-c2n[nH]c3cc([C@@H]4C[C@@]45C(=O)Nc4ccccc45)ccc23)c1 (relative stereo) | < 50%
* CC(C)CCN1C(=O)[C@@]2(C[C@H]2c2ccc3c(/C=C/c4ccc(CN(C)C)cc4)n[nH]c3c2)c2ccccc21 (relative stereo) | > 50%
* O=C1Nc2ccccc2[C@]12C[C@H]2c1ccc2c(/C=C/c3ccc(CN4CC[C@@H](F)C4)cc3)n[nH]c2c1 [Example A106, 2,2,2-trifluoroacetate] | > 50%
* O=C1Nc2ccccc2[C@]12C[C@H]2c1ccc2c(/C=C/c3ccc(N4CCNCC4)cc3)n[nH]c2c1 [Example A92, bis(2,2,2-trifluoroacetate)] | > 50%
* COc1ccc2c(c1)[C@]1(C[C@H]1c1ccc3c(/C=C/c4cc(F)c(CN5CCOCC5)c(F)c4)n[nH]c3c1)C(=O)N2 (relative stereo) [Example A217] | > 50%
* CN1CCc2cc(/C=C/c3n[nH]c4cc([C@@H]5C[C@@]56C(=O)Nc5ccccc56)ccc34)ccc2C1 [Example A74, 2,2,2-trifluoroacetate salt] | > 50%
* CCN(CC)Cc1c(F)cc(/C=C/c2n[nH]c3cc([C@@H]4C[C@@]45C(=O)Nc4ccccc45)ccc23)cc1F [Example A221, 2,2,2-trifluoroacetate] | > 50%
* Cc1ccc(/C=C/c2n[nH]c3cc([C@@H]4C[C@@]45C(=O)Nc4ccccc45)ccc23)c(C)n1 (relative stereo) | > 50%
* COc1ccc2c(c1)[C@]1(C[C@H]1c1ccc3c(/C=C/c4ccc5c(c4)CN(C)CC5)n[nH]c3c1)C(=O)N2 [Example A64, 2,2,2-trifluoroacetate salt] | > 50%
* COc1ccc2c(c1)[C@]1(C[C@H]1c1ccc3c(-c4ccc(CN5CCN(C)CC5)cc4)n[nH]c3c1)C(=O)N2 (relative stereo) | < 50%
* COc1ccc2c(c1)[C@]1(C[C@H]1c1ccc3c(-c4ccc(CN5CCOCC5)cc4)n[nH]c3c1)C(=O)N2 (relative stereo) [Example A139, 2,2,2-trifluoroacetate] | < 50%
* O=C1Nc2ccccc2[C@]12C[C@H]2c1ccc2c(/C=C/c3ccccn3)n[nH]c2c1 (relative stereo) | > 50%
* COc1ccc2c(c1)[C@]1(C[C@H]1c1ccc3c(/C=C/c4ccc5c(c4)CCN(C)C5)n[nH]c3c1)C(=O)N2 [Example A75, 2,2,2-trifluoroacetate salt] | > 50%
* CN1CCc2cc(-c3n[nH]c4cc([C@@H]5C[C@@]56C(=O)Nc5ccccc56)ccc34)ccc2C1 [Example A76, 2,2,2-trifluoroacetate salt] | < 50%
* COc1ccc2c(c1)[C@]1(C[C@H]1c1ccc3c(/C=C/c4ccc(N5CCNCC5)cc4)n[nH]c3c1)C(=O)N2 (relative stereo) [Example A182, 2,2,2-trifluoroacetate] | > 50%
* COc1ccc2c(c1)[C@]1(C[C@H]1c1ccc3c(/C=C/c4csc(CN(C)C)c4)n[nH]c3c1)C(=O)N2 (relative stereo) | > 50%
* CN(C)Cc1ccc(/C=C/c2n[nH]c3cc([C@@H]4C[C@@]45C(=O)N(CC(N)=O)c4ccccc45)ccc23)cc1 (relative stereo) [Example A160, 2,2,2-trifluoroacetate] | > 50%
* COc1ccc2c(c1)[C@]1(C[C@H]1c1ccc3c(-c4ccc5c(c4)CN(C)CC5)n[nH]c3c1)C(=O)N2 [Example A70, 2,2,2-trifluoroacetate salt] | < 50%
* CCc1ccc2c(c1)[C@]1(C[C@H]1c1ccc3c(-c4cccc(CN5CCOCC5)c4)n[nH]c3c1)C(=O)N2 (relative stereo) [Example A141, 2,2,2-trifluoroacetate] | < 50%
